System: HS 578T breast
experimental-details: NCI tumour cell line growth inhibition, 48 h
property-measured: TGI

> print(dat)
                                smiles.data  obs.value
1          CCCCCNC(=O)c1cc2cc(CCl)ccc2oc1=O  > 54.7 µM
2      OCCN(CCO)CCn1cnc2c(NCc3ccccc3)ncnc21   > 100 µM
3              Cc1cc(C)c2ccc(N3CCNCC3)nc2n1   > 100 µM
4  O=C1/C(=C/c2ccc(O)c(CN3CCCCC3)c2)CCC/C1=C\c1ccc(O)c(CN2CCCCC2)c1    83.8 µM
5  O=C(c1ccccc1)c1c(C(F)(F)F)n([O-])c2ccc(F)cc2[n+]1=O    5.08 µM
6  CCC1(CC)C(=O)N(C(=O)c2ccc(C)cc2)N(C(=O)c2ccc(C)cc2)C1=O    > 75 µM
7     Cc1ccc(/C=C2\COc3ccc(O)c(O)c3C2=O)cc1  > 26.4 µM

* * *

System: HOP-62 NSCLC
Possible outcomes: active, inactive

molecule	class-assignment
COC1C(O)CC(OC2CC(OC3CC(O[C@@H]4C(=O)c5c(cc6cc(OC7CC(OC8CC(O)C(O)C(C)O8)C(O)C(C)O7)c(C)c(O)c6c5O)CC4[C@H](OC)C(=O)C(C)=O)OC(C)C3O)OC(C)C2O)OC1C (stereo not given in full)	active
CCN(Cc1ccccc1F)c1ccc(CO)c(Cl)c1	inactive
O=C1Nc2ccccc2/C1=C/C(=O)c1ccc(N2CCCC2)cc1	inactive
CCCCCCCCCCCCCCCCSC(=NCC)NCC	inactive
Cc1ccc(/C=C2\COc3ccc(O)c(O)c3C2=O)cc1	inactive

* * *

Test system: NCI-H522 lung
experimental-details: NCI tumour cell line growth inhibition, 48 h
The following compounds are listed with their measured TGI values.
property-measured: TGI

> print(dat)
                                    compound  obs.value
 1  CCCCN(CCCC)CC(C(=O)Nc1ccccc1)/C(C)=N\NC(=O)c1ccncc1 (centres undefined)   > 100 µM
 2  NC(=O)c1nnsc1N/N=C/c1ccc([N+](=O)[O-])cc1   > 100 µM
 3  CC(=O)NNc1nc(C)c(C(=O)NNC(=O)C(=O)Nc2c(C)cccc2C(C)C)s1   > 100 µM
 4            CCN(Cc1cccnc1)c1ccc(CO)c(Cl)c1   > 100 µM
 5  CCOC(=O)C1=C(C)N=C2SC=C(c3ccccc3)N2[C@H]1c1cn[nH]c1-c1ccc(Cl)cc1    3.44 µM
 6  O=C1c2ccccc2-c2c1c1ccc([N+](=O)[O-])cc1c(=O)n2CCCN1CCOCC1   > 100 µM
 7  COc1ccc(N=NC(=O)NC(CC(C)C)C(=O)NC(Cc2ccccc2)C(=O)O)cc1 (centres undefined)   > 100 µM
 8  CCCCCCCCCCCC[C@@H](O)[C@H]1CC[C@H]([C@H](O)CCCC[C@H](O)CCCCC[C@@H](O)CC2=C[C@H](C)OC2=O)O1    4.45 µM
 9  OCCCc1n(Cc2ccc3ccccc3c2)c2ccccc2[n+]1Cc1ccc2ccccc2c1    3.95 µM
10             O=C(O)CCc1ccc(-c2ccccc2)[nH]1   > 100 µM
11                    NNC(=O)c1n[nH]n(N)c1=S   > 100 µM
12  COc1ccc(-n2c(N)c(C#N)c(C#N)c2-c2cccc([N+](=O)[O-])c2)cc1   > 100 µM
13               Cc1nc(N)nc(N)c1CCCCc1ccccc1    31.6 µM
14  COc1oc(C(=O)NC2CCCCC2)c(-c2ccc(Cl)cc2)c1S(=O)(=O)c1ccccc1    2.94 µM
15         CC(=O)Nc1nc2ncc(C=O)nc2c(=O)[nH]1   > 100 µM
16       O=C1Nc2ccc(Cl)cc2C(=O)N2CCC[C@@H]12   > 100 µM
17  Nc1cc(C(=O)NC2C3CC4CC(C3)CC2C4)[nH]c(=S)n1 (centres undefined)   > 100 µM
18                   NC(=O)c1ncn2c1CNC(=O)C2   > 100 µM
19  COc1ccc(-c2nn(C(=O)NCCN(C)C)cc2-c2ccncc2)cc1Cl    5.36 µM
20                    C[n+]1[se]c2ccccc2c1Cl    42.7 µM
21                                 NC1CCCCC1   > 562 µM
22      O=C(O)CN(CCN(CC(=O)O)CC(=O)O)CC(=O)O   > 100 µM
23    COC(=O)C1(Cc2ccccc2)Cc2cc3c(cc2C1)CCC3    56.4 µM
24   CN(C)CCCNC(=O)c1c(-c2cccnc2)cnc2ccccc12   > 100 µM
25  Cc1nc2ccc(Nc3nc(Cl)nc(Nc4ccc(F)cc4)n3)cc2n1Cc1ccccc1    6.85 µM
26  C[C@H](NC1=CC(=O)C(N[C@@H](C)[C@H](O)c2ccccc2)=CC1=O)[C@H](O)c1ccccc1   > 100 µM
27  Cc1cc2c(cc1C)[n+](=O)c(C(=O)C(C)(C)C)c(C(F)(F)F)n2[O-]    49.6 µM
28   Nc1nc[n+](Cc2ccccc2)c2ncn(Cc3ccccc3)c12   > 100 µM
29  COc1ccc(C(=O)/C=C/c2c(OC)cc(OC)cc2OC)c(OC)c1   > 100 µM
30  CC(C)Oc1c(N(Cc2ccccc2)c2ccccc2C2SCCCS2)c(=O)c1=O    4.87 µM
31  CCOC(=O)/C=C(/N=P(c1ccccc1)(c1ccccc1)c1ccccc1)C(F)(F)F   > 100 µM
32  O=C1/C(=N\O)C2CCC1C2 (centres undefined)   > 100 µM
33              O=C(O)CCn1cnc2c(=S)nc[nH]c21   > 100 µM
34                  COc1c(Cl)cc(Cl)cc1S(=O)O   > 100 µM
35  c1ccc2nc3c(cc2c1)Sc1cc2ccccc2[n+]2c1N3CC2   > 100 µM
36  O=C(CNC(=O)c1ccccc1)Oc1c(Cl)c(Cl)c(Cl)c(Cl)c1Cl    83.8 µM
37      O=c1[nH]c2nc3ccccc3n2c(O)c1-c1ccccc1   > 100 µM
38  C=C(C)c1ccccc1 (tested in a mixture with another compound)   > 100 µM
39  CC(C)=CC1CC(=O)C1(C)Sc1ccccc1 (centres undefined)    69.1 µM

* * *

Tested on: COLO 205 colon
experimental-details: NCI tumour cell line growth inhibition, 48 h
Measured TGI values are reported for all entries that follow.

compound	experimental-target	TGI
CC(C)(c1cn(Cc2ccccc2)c2ccccc12)c1cn(Cc2ccccc2)c2ccccc12	COLO 205 colon	> 100 µM
O=C1N[C@H](Cc2cnc[nH]2)C(=O)N2CCC[C@@H]12	COLO 205 colon	> 100 µM
COC1C(O)CC(OC2CC(OC3CC(O[C@@H]4C(=O)c5c(cc6cc(OC7CC(OC8CC(O)C(O)C(C)O8)C(O)C(C)O7)c(C)c(O)c6c5O)CC4[C@H](OC)C(=O)C(C)=O)OC(C)C3O)OC(C)C2O)OC1C (stereo partly drawn)	COLO 205 colon	0.0319 µM
CCN(Cc1ccccc1F)c1ccc(CO)c(Cl)c1	COLO 205 colon	7.86 µM
Cn1nc(-c2ccccc2)c(C(=O)/C=C/c2ccc(F)cc2)c(N2CCCC2)c1=O	COLO 205 colon	32.1 µM
Cc1nc(N)nc(N)c1CCCCc1ccccc1	COLO 205 colon	21 µM
Clc1ccc(OCCSCCCCCCCCCCSCCOc2ccc(Cl)cc2)cc1	COLO 205 colon	> 100 µM
CN(C)C(=S)/N=C1\SC(=Nc2ccccc2)C(=Nc2ccccc2)N1c1ccc([N+](=O)[O-])cc1	COLO 205 colon	> 100 µM
OC1c2c(ccc3c2CCC3)CC12Cc1ccccc1C2 (stereo not drawn)	COLO 205 colon	31.9 µM
CC=C(CBr)CCC(Br)C(C)(C)Cl (mixture of isomers)	COLO 205 colon	> 10 µM
Cc1cccc2c1CC1(Cc3ccccc3C1=O)C2=O (stereo not drawn)	COLO 205 colon	> 100 µM
[N-]=[N+]=NC1=C(C(=O)c2ccccc2)C(=O)c2cccc3cccc1c23	COLO 205 colon	> 100 µM
CCOC(=O)/C(ON)=C(/CC/C(C(=O)OC)=C(\ON)C(=O)OCC)C(=O)OC	COLO 205 colon	> 100 µM
C#CCCCC(=C)C[C@@H]1OC(=O)[C@H](C)[C@@H]1O	COLO 205 colon	> 100 µM
CC(C)(C)OC/C=C(\Br)CO	COLO 205 colon	> 100 µM
OCc1cn(Cc2ccc(Cl)cc2)c2ccccc12	COLO 205 colon	6.89 µM
O=C(c1ccccc1)C(c1ccccc1)C1(O)C(=O)Nc2c(Cl)ccc(Cl)c21 (stereo not drawn)	COLO 205 colon	38.5 µM
Cc1cc(S(=O)(=O)O)ccc1N=Nc1c(O)ccc2ccccc12	COLO 205 colon	> 100 µM

Where do the numbers come from? From PubChem BioAssay (NCI).
